study_system: Tyrosine-protein kinase JAK3 (Homo sapiens)
Sequence (P52333 whole entry): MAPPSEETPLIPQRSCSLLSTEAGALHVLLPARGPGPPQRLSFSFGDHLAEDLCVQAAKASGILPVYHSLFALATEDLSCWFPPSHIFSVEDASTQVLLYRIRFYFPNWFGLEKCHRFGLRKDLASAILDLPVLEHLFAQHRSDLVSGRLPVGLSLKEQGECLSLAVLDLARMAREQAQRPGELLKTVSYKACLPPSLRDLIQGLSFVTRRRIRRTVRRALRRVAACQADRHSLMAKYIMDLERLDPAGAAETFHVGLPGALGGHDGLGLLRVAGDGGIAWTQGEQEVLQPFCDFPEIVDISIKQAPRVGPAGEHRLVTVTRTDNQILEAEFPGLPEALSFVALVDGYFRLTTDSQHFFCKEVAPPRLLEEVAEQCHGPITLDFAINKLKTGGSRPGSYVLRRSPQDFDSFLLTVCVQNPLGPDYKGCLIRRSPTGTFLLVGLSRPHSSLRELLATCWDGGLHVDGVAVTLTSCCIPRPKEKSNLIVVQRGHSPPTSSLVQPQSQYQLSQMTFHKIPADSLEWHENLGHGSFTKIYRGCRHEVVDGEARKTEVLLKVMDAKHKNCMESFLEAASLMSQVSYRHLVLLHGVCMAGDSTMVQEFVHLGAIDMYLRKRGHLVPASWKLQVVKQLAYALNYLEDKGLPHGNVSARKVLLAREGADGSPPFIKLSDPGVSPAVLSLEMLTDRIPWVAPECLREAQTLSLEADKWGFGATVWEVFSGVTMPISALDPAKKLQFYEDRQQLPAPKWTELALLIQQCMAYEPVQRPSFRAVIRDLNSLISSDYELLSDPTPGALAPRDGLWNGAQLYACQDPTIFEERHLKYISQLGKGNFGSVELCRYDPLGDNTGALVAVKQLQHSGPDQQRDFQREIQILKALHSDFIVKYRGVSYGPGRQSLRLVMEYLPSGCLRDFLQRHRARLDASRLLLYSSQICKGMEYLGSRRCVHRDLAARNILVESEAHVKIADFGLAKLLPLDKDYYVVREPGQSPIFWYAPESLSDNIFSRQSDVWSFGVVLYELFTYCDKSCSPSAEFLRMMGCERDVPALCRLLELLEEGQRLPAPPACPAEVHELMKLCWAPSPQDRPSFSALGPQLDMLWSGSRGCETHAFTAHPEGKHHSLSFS
method_description: Inhibition of recombinant N-terminal GST-tagged human JAK3 (781 to end residues) expressed in baculovirus infected Sf9 insect cells using Poly(4:1 Glu,Tyr) peptide substrate incubated for 60 mins by ADP-Glo luminescence assay
Item-by-item account of IC50

- smiles_notation: "C=CC(=O)Nc1cccc(Nc2nc(Nc3ccc(OCCCN4CCN(CC)CC4)cc3C)ncc2F)c1"
  IC50: "> 100 nM"
- smiles_notation: "C=CC(=O)Nc1cccc(Nc2nc(Nc3ccc(OCCCN4CCN(CC)CC4)cc3C)ncc2Cl)c1"
  IC50: "> 100 nM"
- smiles_notation: "C=CC(=O)Nc1cccc(Nc2nc(Nc3ccc(OCC(=O)N4CCOCC4)c(OC)c3)ncc2Cl)c1"
  IC50: "21.6 nM"
- smiles_notation: "C=CC(=O)Nc1cccc(Nc2nc(Nc3ccc(OCC(=O)N4CCOCC4)c(Cl)c3)ncc2Cl)c1"
  IC50: "8.34 nM"
- smiles_notation: "C=CC(=O)Nc1cccc(Nc2nc(Nc3ccc(OCCCN4CCOCC4)c(Cl)c3)ncc2Cl)c1"
  IC50: "1.06 nM"

# evaluate next
Tell me the measured IC50 of C=CC(=O)Nc1cccc(Nc2nc(Nc3ccc(OCCCN4CCOCC4)cc3C)ncc2Cl)c1 , please.
> 100 nM
